Recorded measurements of Inf. K: Rhizomucor miehei IHEM13391, pIC50, one per entry
- System: Rhizomucor miehei
- ASSAY TEXT: Antifungal activity in vitro, resazurin growth inhibition: Rhizomucor miehei (IHEM13391)
- Format: cell-based
QUANTITY KIND: Inf. K: Rhizomucor miehei IHEM13391, pIC50

COMPOUND | VALUE OBSERVED
Clc1cccc2c1CN=C(c1ccc3ccoc3c1)c1cccn1-2 | <4.19
Cc1cccc2cc(C3=NCc4ccccc4-n4cccc43)oc12 | 4.91
Clc1ccc(C2=NCc3c(Cl)cccc3-n3cccc32)cn1 | <4.19
Fc1cc(F)c2oc(C3=NCc4c(Cl)cccc4-n4cccc43)cc2c1 | <4.19
Clc1ccc2c(c1)-n1cccc1C(c1cc3ccccc3o1)=NC2 | <4.19
FC(F)(F)c1ccc(C2=NCc3c(Cl)cccc3-n3cccc32)cn1 | <4.19
COc1cccc2cc(C3=NCc4c(Cl)cccc4-n4cccc43)oc12 | <4.19
Cn1nnc2ccc(C3=NCc4c(Cl)cc(Cl)cc4-n4cccc43)cc21 | 4.53
Clc1cccc2c1-n1cccc1C(c1ccc3sccc3c1)=NC2 | <4.19
Clc1cccc2c1CN=C(c1cc3cccc(Cl)c3o1)c1cccn1-2 | <4.19
CCc1ccc(C2=NCc3c(Cl)cccc3-n3cccc32)cn1 | <4.19
Clc1ccc2c(c1)-n1cccc1C(c1ccc3sccc3c1)=NC2 | 5.08
Cc1cccc2c1CN=C(c1ccc3ncsc3c1)c1cccn1-2 | <4.49
COc1cccc2cc(C3=NCc4c(C)cccc4-n4cccc43)oc12 | 4.44
Fc1cccc2cc(C3=NCc4c(Cl)cccc4-n4cccc43)oc12 | <4.19
CC(F)(F)c1ccc(C2=NCc3c(F)cccc3-n3cccc32)cn1 | <4.19
c1ccc2c(c1)CN=C(c1cc3ccccc3s1)c1cccn1-2 | 5.06
Clc1cccc2c1CN=C(c1ccc3occ(Cl)c3c1)c1cccn1-2 | <4.19
Cc1cccc2c1CN=C(c1cc3cccc(C)c3o1)c1cccn1-2 | 4.59
Clc1cccc2c1CN=C(c1cc3ccccc3s1)c1cccn1-2 | <4.19
Fc1cccc2c1CN=C(c1ccc3sccc3c1)c1cccn1-2 | 5.14
Cc1cccc2c1-n1cccc1C(c1cc3ccccc3s1)NC2.Cl (racemic) | <4.19
Fc1ccc2oc(C3=NCc4c(Cl)cc(Cl)cc4-n4cccc43)cc2c1 | <4.19
Clc1cc(Cl)c2c(c1)-n1cccc1C(c1cc3ccccc3o1)=NC2 | <4.19
Cc1cccc2c1-n1cccc1C(c1cc3ccccc3o1)=NC2 | 4.80

// data source = patent US9493468B2
